- Target under test: KDR (h) (VEGFR2) (Homo sapiens, UniProt P35968)
- Sequence (P35968 20-1356): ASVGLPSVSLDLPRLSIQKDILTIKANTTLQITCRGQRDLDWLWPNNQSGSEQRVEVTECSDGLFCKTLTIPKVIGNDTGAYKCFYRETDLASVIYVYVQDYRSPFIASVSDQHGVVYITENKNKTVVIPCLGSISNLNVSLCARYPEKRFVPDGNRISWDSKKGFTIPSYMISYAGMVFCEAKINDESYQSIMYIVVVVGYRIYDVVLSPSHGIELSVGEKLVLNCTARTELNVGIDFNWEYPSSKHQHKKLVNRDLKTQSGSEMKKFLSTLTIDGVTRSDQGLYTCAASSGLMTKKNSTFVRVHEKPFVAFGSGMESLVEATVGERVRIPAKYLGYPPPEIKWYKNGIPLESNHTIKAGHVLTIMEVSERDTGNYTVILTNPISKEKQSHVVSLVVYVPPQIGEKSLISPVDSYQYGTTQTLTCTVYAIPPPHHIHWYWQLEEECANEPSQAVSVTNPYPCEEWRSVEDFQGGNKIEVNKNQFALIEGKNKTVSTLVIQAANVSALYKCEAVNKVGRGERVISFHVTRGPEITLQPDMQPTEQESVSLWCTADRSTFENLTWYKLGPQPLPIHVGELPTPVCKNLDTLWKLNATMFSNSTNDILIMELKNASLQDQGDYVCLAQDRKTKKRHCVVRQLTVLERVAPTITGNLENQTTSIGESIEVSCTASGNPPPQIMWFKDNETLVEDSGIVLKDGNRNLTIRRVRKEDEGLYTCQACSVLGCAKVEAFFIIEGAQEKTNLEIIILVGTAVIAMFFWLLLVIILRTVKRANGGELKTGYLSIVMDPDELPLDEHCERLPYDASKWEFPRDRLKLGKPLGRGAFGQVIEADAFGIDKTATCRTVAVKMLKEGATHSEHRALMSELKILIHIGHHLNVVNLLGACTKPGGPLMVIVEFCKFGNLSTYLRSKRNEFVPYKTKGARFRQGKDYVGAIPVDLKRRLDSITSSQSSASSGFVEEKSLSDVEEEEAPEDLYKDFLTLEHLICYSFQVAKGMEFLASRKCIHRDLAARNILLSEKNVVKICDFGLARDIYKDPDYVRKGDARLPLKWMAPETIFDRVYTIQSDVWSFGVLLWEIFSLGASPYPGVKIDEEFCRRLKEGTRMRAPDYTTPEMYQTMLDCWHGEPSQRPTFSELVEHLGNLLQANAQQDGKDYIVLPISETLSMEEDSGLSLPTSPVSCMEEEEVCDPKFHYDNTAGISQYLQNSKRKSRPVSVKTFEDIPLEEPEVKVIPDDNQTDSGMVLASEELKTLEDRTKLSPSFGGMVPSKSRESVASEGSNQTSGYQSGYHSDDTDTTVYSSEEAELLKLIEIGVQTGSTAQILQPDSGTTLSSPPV
Recorded endpoint: IC50 (nM)
Give the value in nM but do not write nM after it.

Molecule: COc1cc(OC)cc(N(CCCO)c2ccc3ncc(-c4ccnc(N)c4)nc3c2)c1
Observed value: 75.9
--
Molecule: COc1cc(OC)cc(N(CCCNC(C)C)c2ccc3ncc(-c4ccnc(N)c4)nc3c2)c1
Observed value: 52.5
--
Molecule: COc1cc(OC)cc(N(CC2CC2)c2ccc3ncc(-n4cnc(CO)c4)nc3c2)c1
Observed value: 741
--
Molecule: COc1cc(OC)cc(N(CCCO)c2ccc3ncc(-c4ccc(N5CCNCC5)nc4)nc3c2)c1
Observed value: 110
--
Molecule: COCC(O)CN(c1cc(OC)cc(OC)c1)c1ccc2ncc(-c3cccnc3)nc2c1 (single isomer, unassigned) [Compound 47]
Observed value: 339
--
Molecule: COc1cc(OC)cc(N(CCNC(C)C)c2ccc3ncc(-n4cnc(CO)c4)nc3c2)c1
Observed value: 513
--
Molecule: CNc1ccc(-c2cnc3ccc(N(CCCNCC(F)(F)F)c4cc(OC)cc(OC)c4)cc3n2)cn1
Observed value: 363
--
Molecule: COc1cc(OC)cc(N(CCNC(C)C)c2ccc3ncc(-c4ccn[nH]4)nc3c2)c1
Observed value: 126

Recorded IC50 of COc1cc(OC)cc(N(CC2CC2)c2ccc3ncc(-c4nnn[nH]4)nc3c2)c1 , please.
3310

Moving on to COc1cc(OC)cc(N(CCO)c2ccc3ncc(C4=CCN(C(=O)OC(C)(C)C)C4)nc3c2)c1
479

Please answer likewise for CNc1ccc(-c2cnc3ccc(N(CCCO)c4cc(OC)cc(OC)c4)cc3n2)cn1
135

---

# BAF3-FGFR 3 (MIN IL3) 384 well pIC50 annotations
- Target under test: Ba/F3-FGFR3-transfected cells (Homo sapiens)
- Experiment notes: Ba/F3-FGFR3 (minus IL3) cellular proliferation assay, Alamar Blue
- Assay type: cell-based
- Experimental parameters: minus IL3, 384 well
- Experimental: Ba/F3-FGFR3 (Minus IL3 or Plus IL3) (Cellular Proliferation Assay) Cells were put in an incubator at 37° C. and 5% CO2. After 24 hours, 10 μl of Alamar Blue solution (0.5 mM K3Fe(CN)6, 0.5 mM KaFe(CN)6, 0.15 mM Resazurin and 100 mM Phosphate Buffer) was added to the wells, incubated for 4 hours at 37° C. and 5% CO2 before RFU's (Relative Fluorescence Units) (ex. 540 nm., em. 590 nm.) were measured in a flurorescence plate reader. […]
Number only, no unit.

Before answering, review these 4 worked examples.
Structure smiles string: COc1cc(OC)cc(N(CCO)c2ccc3ncc(-c4ccnc(C(=O)NCCCCCO)c4)nc3c2)c1
BAF3-FGFR 3 (MIN IL3) 384 well pIC50: 5.72
--
Structure smiles string: COc1cc(OC)cc(N(CCO)c2ccc3ncc(-c4ccc(N5CCNCC5)nc4)nc3c2)c1
BAF3-FGFR 3 (MIN IL3) 384 well pIC50: 6.12
--
Structure smiles string: COc1cc(OC)cc(N(CC2CC2)c2ccc3ncc(-c4c[nH]cn4)nc3c2)c1
BAF3-FGFR 3 (MIN IL3) 384 well pIC50: 5.08
--
Structure smiles string: COc1cc(OC)cc(N(CCN2CCNCC2)c2ccc3ncc(-c4ccc(N)nc4)nc3c2)c1
BAF3-FGFR 3 (MIN IL3) 384 well pIC50: 5.9

Next compound, BAF3-FGFR 3 (MIN IL3) 384 well pIC50 to be filled in.
Tell me the measured BAF3-FGFR 3 (MIN IL3) 384 well pIC50 of COc1cc(OC)cc(N(CCCO)c2ccc3ncc(-c4ccnc(C(=O)NCCCCN)c4)nc3c2)c1 , please.
5.51

---

- Target under test: Ba/F3-KDR-transfected cells (Homo sapiens)
- Sequence (P35968 whole entry, change not shown): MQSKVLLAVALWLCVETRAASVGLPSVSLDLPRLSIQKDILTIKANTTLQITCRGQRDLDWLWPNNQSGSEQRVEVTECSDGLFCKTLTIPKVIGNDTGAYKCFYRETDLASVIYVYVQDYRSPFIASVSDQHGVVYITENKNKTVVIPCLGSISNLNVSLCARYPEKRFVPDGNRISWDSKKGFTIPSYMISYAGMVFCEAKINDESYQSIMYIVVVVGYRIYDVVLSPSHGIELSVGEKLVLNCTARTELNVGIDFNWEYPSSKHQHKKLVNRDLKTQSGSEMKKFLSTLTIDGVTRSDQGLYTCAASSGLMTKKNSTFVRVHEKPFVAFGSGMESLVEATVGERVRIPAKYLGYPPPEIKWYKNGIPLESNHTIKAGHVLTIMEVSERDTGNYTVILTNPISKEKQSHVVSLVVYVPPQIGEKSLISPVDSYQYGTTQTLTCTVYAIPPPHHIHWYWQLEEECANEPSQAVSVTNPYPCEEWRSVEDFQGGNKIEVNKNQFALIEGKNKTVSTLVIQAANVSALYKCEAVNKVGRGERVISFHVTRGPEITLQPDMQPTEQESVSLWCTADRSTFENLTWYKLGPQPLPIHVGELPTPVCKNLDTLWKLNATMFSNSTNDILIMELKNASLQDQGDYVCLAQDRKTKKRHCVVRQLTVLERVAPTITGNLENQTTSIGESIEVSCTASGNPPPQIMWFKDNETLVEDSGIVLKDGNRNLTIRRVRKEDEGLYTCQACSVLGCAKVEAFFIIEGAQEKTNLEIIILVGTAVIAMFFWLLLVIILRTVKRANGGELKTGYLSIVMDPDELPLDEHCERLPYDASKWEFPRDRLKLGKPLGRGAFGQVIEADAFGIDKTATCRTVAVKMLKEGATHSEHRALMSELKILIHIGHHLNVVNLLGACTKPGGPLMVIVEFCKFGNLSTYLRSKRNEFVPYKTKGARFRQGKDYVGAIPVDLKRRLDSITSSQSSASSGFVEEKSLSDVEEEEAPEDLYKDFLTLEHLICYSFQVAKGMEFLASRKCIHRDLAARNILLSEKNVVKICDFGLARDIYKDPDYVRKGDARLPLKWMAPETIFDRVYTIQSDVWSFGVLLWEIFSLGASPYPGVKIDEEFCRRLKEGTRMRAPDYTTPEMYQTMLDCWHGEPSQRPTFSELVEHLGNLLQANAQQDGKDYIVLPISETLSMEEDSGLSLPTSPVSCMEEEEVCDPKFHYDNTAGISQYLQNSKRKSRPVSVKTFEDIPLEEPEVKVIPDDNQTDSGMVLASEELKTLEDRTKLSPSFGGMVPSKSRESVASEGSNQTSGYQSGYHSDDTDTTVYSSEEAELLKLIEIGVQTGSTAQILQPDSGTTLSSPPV
- Experiment notes: Ba/F3-KDR (minus IL3) cellular proliferation assay, Alamar Blue
- Assay type: cell-based
- Experimental parameters: minus IL3
- Experimental: Ba/F3-KDR (Minus IL3 or Plus IL3) (Cellular Proliferation Assay) In a 384 well plate, 100 nl of compound dilution in DMSO was sprayed before adding 50 μl cell culture medium (phenol red free RPMI-1640, 10% FBS, 2 mM L-Glutamine and 50 μg/ml Gentamycin) containing 20000 cells per well of Ba/F3-KDR-transfected cells. Cells were put in an incubator at 37° C. and 5% CO2. […]
Recorded endpoint: BAF3-KDR (MIN IL3) 384 well pIC50
Keep it simple and answer with nothing but the number.

Below: 3 compounds and their reported BAF3-KDR (MIN IL3) 384 well pIC50.
Structure smiles string: COc1cc(OC)cc(N(CCCO)c2ccc3ncc(-c4ccc(C)nc4)nc3c2)c1
Target under test: Ba/F3-KDR-transfected cells (Homo sapiens)
BAF3-KDR (MIN IL3) 384 well pIC50: 5.06

Structure smiles string: COc1cc(OC)cc(N(Cc2cccc(CN)n2)c2ccc3ncc(-c4ccc(N)nc4)nc3c2)c1
Target under test: Ba/F3-KDR-transfected cells (Homo sapiens)
BAF3-KDR (MIN IL3) 384 well pIC50: 5.04

Structure smiles string: COc1cc(OC)cc(N(CCO)c2ccc3ncc(-c4ccc(N)nc4)nc3c2)c1
Target under test: Ba/F3-KDR-transfected cells (Homo sapiens)
BAF3-KDR (MIN IL3) 384 well pIC50: 5.335

Kindly review the next compound as well.
API: value(readout= BAF3-KDR (MIN IL3) 384 well pIC50, system= Ba/F3-KDR-transfected cells (Homo sapiens), query= CNc1ccc(-c2cnc3ccc(N(CCCO)c4cc(OC)cc(OC)c4)cc3n2)cn1 )
5.19

---

BAF3-FLT3 (MIN IL3) 384 well pIC50 overview
- Target under test: Ba/F3-Flt3-transfected cells (Homo sapiens, UniProt P36888, cells depend on it, form not given)
- Experiment notes: Ba/F3-Flt3 (minus IL3) cellular proliferation assay, Alamar Blue
- Assay type: cell-based
- Experimental parameters: minus IL3

Find the recorded BAF3-FLT3 (MIN IL3) 384 well pIC50 belonging to COc1cc(OC)cc(N(CCCO)c2ccc3ncc(-c4ccnc(NC(=O)OC(C)(C)C)c4)nc3c2)c1 and report it.
<5

Try this molecule too: COc1cc(OC)cc(N(CC2CC2)c2ccc3ncc(-c4cc[nH]c4)nc3c2)c1
<5

Likewise for CNCCN(c1cc(OC)cc(OC)c1)c1ccc2ncc(-c3ccc(NC(=O)OC(C)(C)C)nc3)nc2c1 ?
5.76

What do you have for COc1cc(OC)cc(N(CCO)c2ccc3ncc(/C(C)=N/OC(C)(C)C)nc3c2)c1 ?
<5

---

The molecules below have reported IC50 for KDR (h) (VEGFR2) (Homo sapiens).
Field format: number, assumed nM, no unit text.

For the molecule shown here, COc1cc(OC)cc(N(CCCNCC(F)(F)F)c2ccc3ncc(-c4ccnc(C(=O)NCCCCCO)c4)nc3c2)c1 , give the reported IC50.
708

---

- Target under test: Ba/F3-FGFR3-transfected cells (Homo sapiens, UniProt P22607)
- Sequence (P22607 whole entry, change not shown): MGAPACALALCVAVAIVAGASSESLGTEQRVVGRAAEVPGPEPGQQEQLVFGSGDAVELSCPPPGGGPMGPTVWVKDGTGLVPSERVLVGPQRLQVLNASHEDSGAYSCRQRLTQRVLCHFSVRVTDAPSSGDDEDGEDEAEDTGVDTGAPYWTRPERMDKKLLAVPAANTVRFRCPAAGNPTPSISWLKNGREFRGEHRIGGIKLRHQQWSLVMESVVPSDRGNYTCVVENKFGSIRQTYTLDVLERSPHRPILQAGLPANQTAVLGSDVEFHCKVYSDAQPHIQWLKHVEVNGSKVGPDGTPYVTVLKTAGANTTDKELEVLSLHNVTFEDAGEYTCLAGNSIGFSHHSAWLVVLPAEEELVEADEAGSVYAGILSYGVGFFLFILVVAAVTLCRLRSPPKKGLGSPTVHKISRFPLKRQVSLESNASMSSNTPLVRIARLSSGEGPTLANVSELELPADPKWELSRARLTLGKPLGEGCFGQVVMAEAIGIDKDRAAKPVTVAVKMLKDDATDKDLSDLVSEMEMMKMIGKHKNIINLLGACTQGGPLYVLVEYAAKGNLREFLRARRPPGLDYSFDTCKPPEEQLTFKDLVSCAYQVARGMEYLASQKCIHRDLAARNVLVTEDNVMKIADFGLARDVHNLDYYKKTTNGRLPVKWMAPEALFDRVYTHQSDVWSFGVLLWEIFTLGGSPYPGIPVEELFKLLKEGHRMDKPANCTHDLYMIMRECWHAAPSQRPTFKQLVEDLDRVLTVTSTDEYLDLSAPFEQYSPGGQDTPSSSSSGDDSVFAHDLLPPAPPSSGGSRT
- Experiment notes: Ba/F3-FGFR3 (minus IL3) cellular proliferation assay, Alamar Blue
- Format: cell-based
- Experimental parameters: minus IL3, 384 well
Mark YES for BAF3-FGFR 3 (MIN IL3) 384 well pIC50 under 6, NO if at or over.

Sample answers from the record:
Molecule: COCC(O)CN(c1cc(OC)cc(OC)c1)c1ccc2ncc(-c3cccnc3)nc2c1 (single isomer, unassigned) [Compound 46]
Class label: NO
--
Molecule: COc1cc(OC)cc(N(CC2CC2)c2ccc3ncc(-c4nccs4)nc3c2)c1 [Compound 97]
Class label: YES
--
Molecule: COc1cc(OC)cc(N(CCNC(C)C)c2ccc3ncc(-c4ccccc4)nc3c2)c1 [Compound 121]
Class label: NO
--
Molecule: COc1cc(OC)cc(N(CC2CC2)c2ccc3ncc(-n4ccc(C)n4)nc3c2)c1 [Compound 31]
Class label: YES

For this molecule, is BAF3-FGFR 3 (MIN IL3) 384 well pIC50 lower than 6? COc1cc(OC)cc(N(CC2CO2)c2ccc3ncc(-c4ccc(N)nc4)nc3c2)c1 (stereo not drawn) [Compound 110]
NO

Queued: COc1cc(OC)cc(N(CCCO)c2ccc3ncc(-c4cccnc4F)nc3c2)c1 [Compound 149]
YES

Same for COc1cc(OC)cc(N(CCCNCC(F)(F)F)c2ccc3ncc(-c4ccn(C)c4)nc3c2)c1 [Compound 5]
NO

Now consider COc1cc(OC)cc(N(CCNC(C)C)c2ccc3ncc(C(=O)N4CCCCC4)nc3c2)c1 [Compound 180] and answer again.
YES

How about this molecule: COc1cc(OC)cc(N(CC2CC2)c2ccc3ncc(-c4ccc5[nH]ccc5c4)nc3c2)c1 [Compound 86]
YES

Field entry: COCC(CN(c1cc(OC)cc(OC)c1)c1ccc2ncc(-c3cccnc3)nc2c1)OC(C)=O (single isomer, unassigned) [Compound 76]
NO

// next record COc1cc(OC)cc(N(CCCO)c2ccc3ncc(-c4ccnc(-c5ccnc(Cl)c5)c4)nc3c2)c1 [Compound 133]
YES
